Values from patent US5597847A

experiment.description: Rat gastrointestinal tolerability
Type: in vivo
test.settings: in vivo, po, calculated, read-out: average dose of ulcerogenicity
measure: TD50 (mg/kg)

[[record]]
compound = "O=C(O)Cc1ccccc1Nc1c(Cl)cccc1Cl [reference compound]"
readout_value = 6.1


* * *

experiment.description: Acute toxicity in rodents, mouse
test.settings: in vivo, ip, read-out: LD50 (95% fiducial limits)
measure: LD50

[[record]]
compound = "O=C(Cc1ccccc1Nc1c(Cl)cccc1Cl)OCCCCO[N+](=O)[O-] [(II)]"
measure = "LD50"
readout_value = "253 mg/kg"


* * *

experiment.description: Acute toxicity in rodents, mouse
test.settings: in vivo, po, read-out: LD50 (95% fiducial limits)
measure: LD50 (mg/kg)

[[record]]
molecule = "O=C(Cc1ccccc1Nc1c(Cl)cccc1Cl)OCCCCO[N+](=O)[O-] [(II)]"
value_units = "mg/kg"
readout_value = 497

